A collection of compounds and their measured pIC50
TEST_TARGET: Prostaglandin D2 receptor (Homo sapiens, UniProt Q13258)
Sequence (Q13258 whole entry): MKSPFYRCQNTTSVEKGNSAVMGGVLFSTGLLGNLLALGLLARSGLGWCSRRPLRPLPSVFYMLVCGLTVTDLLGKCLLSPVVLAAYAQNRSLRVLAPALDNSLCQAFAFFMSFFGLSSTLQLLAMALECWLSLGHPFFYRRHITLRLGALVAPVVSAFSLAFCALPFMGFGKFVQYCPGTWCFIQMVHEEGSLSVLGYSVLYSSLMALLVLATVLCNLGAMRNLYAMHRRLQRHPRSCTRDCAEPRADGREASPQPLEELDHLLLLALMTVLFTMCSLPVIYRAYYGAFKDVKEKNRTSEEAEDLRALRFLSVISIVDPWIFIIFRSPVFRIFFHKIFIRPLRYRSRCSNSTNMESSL
ASSAY_TEXT: Displacement of [3H]PGD2 from human DP receptor expressed in 293 cells by scintillation counting in presence of 0.5 % BSA
Format: cell-based, HEK293
Here pIC50 is given on a logarithmic scale as minus log10 of the concentration in mol/L.

Examples from the recorded data:
> print(dat)
                                   molecule  assay.value
1  COc1cc(CC(=O)O)ccc1Oc1ccc(C(=O)NC2CCC2)cc1CS(=O)(=O)c1ccc(Cl)cc1Cl         6.24
2  CCCCNC(=O)c1ccc(Oc2ccc(Cc3nnn[nH]3)cc2OC)c(NS(=O)(=O)c2ccc(Cl)cc2Cl)c1         8.15
3  CCCCNC(=O)c1ccc(Oc2ccc(C3(C(=O)O)CC3)cc2OC)c(NS(=O)(=O)c2ccc(Cl)cc2Cl)c1         6.04
4  CCCCNC(=O)c1ccc(Oc2ccc(CC(=O)NS(C)(=O)=O)cc2OC)c(NS(=O)(=O)c2ccc(Cl)cc2Cl)c1         8.22
5  CCCCNC(=O)c1ccc(Oc2ccc(CC(=O)O)cc2OC)c(NS(=O)(=O)c2ccc(Cl)cc2)c1         7.89

Exercise: Any idea what its pIC50 is? The compound is CCCCNC(=O)c1ccc(Oc2ccc(C3(C(=O)O)CCCC3)cc2OC)c(NS(=O)(=O)c2ccc(Cl)cc2Cl)c1
Solution: 7.92

Exercise: Then what about the compound CCCCNC(=O)c1ccc(Oc2ccc(C(F)(F)C(=O)O)cc2OC)c(NS(=O)(=O)c2ccc(Cl)cc2Cl)c1 ?
Solution: 8.52
